tested on: MDA-MB-231 breast cancer cell line; test: XTT test, number of viable cells, MDA-MB-231; format: cell-based; settings: Homo sapiens, concentrations tested up to 80 μM
ENDPOINT_LABEL: pEC50
pEC50 here: minus log base 10 of the concentration, concentration in moles per litre.

Challenge: Given the molecule Nc1cc(-c2ccc(Cl)cc2)nn1S(=O)(=O)c1c(F)c(F)c(F)c(F)c1F [Compound 497] , write its reported pEC50.
Response given: 5.70

Challenge: Given the molecule CC(C)c1nn2cc(-c3ccc(F)cc3)nc2s1 [Compound 631] , write its reported pEC50.
Response given: 4.49

---
Challenge: Given the molecule Cc1ccn2cc(-c3ccc(F)cc3)cc2c1 [Compound 115] , write its reported pEC50.
Response given: 4.40

====

Tested on: MCF-7 breast cancer cell line
Assay: XTT test, number of viable cells, MCF-7
Type: cell-based
Conditions: Homo sapiens, MCF7, concentrations tested up to 80 μM
Procedure: The effect of the four compounds 497, 631, 115 and 540 on the growth profile of cancer cells which express Fer was tested. […] The cells were seeded in 96 wells microplates and were left to grow untreated overnight. […] The number of viable cells in each well was determined 48, 72, 96 hours after compounds addition, using the XTT test (Berridge, M. V. et al, 2005).
As shown below, each of these compounds has a reported EC50 value.
Answer in µM, number only, no unit symbol.

Challenge: Write down measured EC50 (MCF-7 breast cancer cell line) for this compound. Nc1cc(-c2ccc(Cl)cc2)nn1S(=O)(=O)c1c(F)c(F)c(F)c(F)c1F
Response given: 8

Now consider the entry below.
Challenge: Write down measured EC50 (MCF-7 breast cancer cell line) for this compound. Cc1ccn2cc(-c3ccc(F)cc3)cc2c1
Response given: 8

====

system: PC3 prostate cancer cell line; assay: XTT test, number of viable cells, PC3; assay type: cell-based; settings: concentrations tested up to 80 μM
ENDPOINT_LABEL: EC50

Challenge: Given the molecule CC(C)c1nn2cc(-c3ccc(F)cc3)nc2s1 , write its reported EC50.
Response given: 32 µM

Now consider the entry below.
Challenge: Given the molecule Nc1cc(-c2ccc(Cl)cc2)nn1S(=O)(=O)c1c(F)c(F)c(F)c(F)c1F , write its reported EC50.
Response given: 4 µM

====

Test system: HCT116 human colorectal carcinoma cells
Test: XTT test, number of viable cells, HCT116
Assay type: cell-based
Conditions: HCT-116, after 96 h, read-out: IC50, reduction in number of viable cells, HCT116
Method: The effect of the four compounds 497, 631, 115 and 540 on the growth profile of cancer cells which express Fer was tested. […] The cells were seeded in 96 wells microplates and were left to grow untreated overnight. […] The number of viable cells in each well was determined 48, 72, 96 hours after compounds addition, using the XTT test (Berridge, M. V. et al, 2005). […]
ENDPOINT_LABEL: IC50
Show the value, then the unit it is measured in.

Challenge: Given the molecule Nc1cc(-c2ccc(Cl)cc2)nn1S(=O)(=O)c1c(F)c(F)c(F)c(F)c1F [Compound 497] , write its reported IC50.
Response given: 2 µM

====

tested on: HT29 human colorectal carcinoma cells; assay: XTT test, number of viable cells, HT29; type: cell-based; settings: HT-29, after 96 h, read-out: IC50, reduction in number of viable cells, HT29
ENDPOINT_LABEL: pIC50
pIC50 here: minus log base 10 of the concentration, concentration in moles per litre.

Challenge: Write down measured pIC50 (HT29 human colorectal carcinoma cells) for this compound. Nc1cc(-c2ccc(Cl)cc2)nn1S(=O)(=O)c1c(F)c(F)c(F)c(F)c1F [Compound 497]
Response given: 5.70

Origin of measurements: patent US8481572B2
